Source: ChEMBL document CHEMBL3120090

# Protocol Description: Binding affinity to HIV-1 FSS RNA in HBS buffer at pH 7.4 assessed as dissociation rate by surface plasmon resonance analysis
# Parameters: species or system Human immunodeficiency virus 1
As shown below, each of these molecules has a reported Dissociation rate constant (koff) value.
# number only, unit ×10⁻³ /s dropped from output

Previously resolved entries follow.
Note to self: Dissociation rate constant (koff) recorded for "CCc1nc2cc3ccccc3cc2cc1C(=O)N[C@@H](C/C=C\C[C@H](NC(=O)c1cc2cc3ccccc3cc2nc1CC)C(=O)N1CCC[C@H]1C(=O)N[C@@H](Cc1ccccc1)C(=O)NCCCN)C(=O)N1CCC[C@H]1C(=O)N[C@@H](Cc1ccccc1)C(=O)NCCCN" was 4.11

Note to self: Dissociation rate constant (koff) recorded for "CCc1nc2cc3ccccc3cc2cc1C(=O)N[C@@H](CSSC[C@H](NC(=O)c1cc2cc3ccccc3cc2nc1CC)C(=O)N1CCC[C@H]1C(=O)N[C@@H](Cc1ccccc1)C(=O)NCCCN)C(=O)N1CCC[C@H]1C(=O)N[C@@H](Cc1ccccc1)C(=O)NCCCN" was 7.92

Please find the next molecule below.
Note to self: Dissociation rate constant (koff) recorded for "CCc1nc2ccccc2cc1C(=O)N[C@@H](C/C=C/C[C@H](NC(=O)c1cc2ccccc2nc1CC)C(=O)N1CCC[C@H]1C(=O)N[C@@H](Cc1ccccc1)C(=O)NCCCN)C(=O)N1CCC[C@H]1C(=O)N[C@@H](Cc1ccccc1)C(=O)NCCCN" was 7.5
